# System: HCT-116 colon
# test-method-notes: NCI tumour cell line growth inhibition, 48 h
readout-label: TGI

Solved entries:
Input: Can you share its TGI? I mean this molecule: CCOC(=O)C(NC(=O)c1ccc(N=NN(C)C)cc1)C(C)C (stereo not drawn)
Output: > 100 µM

Input: Do the same for FC(F)=C(c1ccc(-c2ccc(Cl)cc2)cc1)C(F)(F)F please
Output: 32 µM

Input: Do the same for Cc1c(-c2nc(N)nc(C3CC3)c2C)nc(N)nc1C1CC1 please
Output: > 100 µM

Input: Do the same for CNC(=O)c1ccc(-c2cnc3ncc(Cc4ccc5ncccc5c4)n3n2)cc1F please
Output: > 100 µM

Input: Do the same for c1ccc([P+](Cc2csnn2)(c2ccccc2)c2ccccc2)cc1 please
Output: > 100 µM

***
Input: Can you share its TGI? I mean this molecule: COC(=O)c1c(O)ccc2[nH]c(C)c(C#N)c12
Output: 61.5 µM

Input: Do the same for Cn1c(N)nc2c(nc(OCc3ccccc3)n2C2OC(CO)C(O)C2O)c1=O (stereo not drawn) please
Output: > 100 µM

Input: Do the same for CC1(C)OC(=O)C=C([O-])O1.CC1(C)OC(=O)C=C([O-])O1.O=c1c(O)c(-c2ccc([O-])cc2[O-])oc2cc(O)cc(O)c12.[Ti+4] please
Output: > 100 µM
